Measured values drawn from paper PMC11510191 for this set.

Form field: MIC (one value per entry).
# Test system: M. luteus (G+)
# test.method.notes: MIC broth microdilution
# Format: cell-based
# condition.set: Micrococcus luteus, 24 h

{"columns": ["compound", "tested.on", "MIC"],
 "data": [
  ["CNC(C)C1CCC(N)C(OC2C(N)CC(N)C(OC3OCC(C)(O)C(NC)C3O)C2O)O1 (stereo not drawn) [Gentamicin, reference compound]", "M. luteus (G+)", "0.78 µg/mL"],
  ["Cc1ccc(S(=O)(=O)n2cc(CCC(=O)Oc3c4c(c5ccccc5c3OC(=O)CCc3cn(S(=O)(=O)c5ccc(C)cc5)nn3)OC(C)(C)C=C4)nn2)cc1", "M. luteus (G+)", "> 200 µg/mL"],
  ["CC1(C)C=Cc2c(OC(=O)CCCc3cn(Cc4ccc([N+](=O)[O-])cc4)nn3)c(OC(=O)CCCc3cn(Cc4ccc([N+](=O)[O-])cc4)nn3)c3ccccc3c2O1", "M. luteus (G+)", "> 200 µg/mL"],
  ["C#CCCC(=O)Oc1c2c(c3ccccc3c1OC(=O)CCC#C)OC(C)(C)C=C2", "M. luteus (G+)", "> 200 µg/mL"],
  ["CC(=O)O[C@@H]1[C@@H](OC(C)=O)[C@H](OC(C)=O)CO[C@H]1n1cc(CCCC(=O)Oc2c3c(c4ccccc4c2OC(=O)CCCc2cn([C@@H]4OC[C@@H](OC(C)=O)[C@H](OC(C)=O)[C@H]4OC(C)=O)nn2)OC(C)(C)C=C3)nn1", "M. luteus (G+)", "> 200 µg/mL"],
  ["Cc1ccc(S(=O)(=O)n2cc(CCCC(=O)Oc3c4c(c5ccccc5c3OC(=O)CCCc3cn(S(=O)(=O)c5ccc(C)cc5)nn3)OC(C)(C)C=C4)nn2)cc1", "M. luteus (G+)", "100 µg/mL"]
]}
